Measured values drawn from patent US6737383B1 for this set.

# Tested on: giant foxtail
# procedure text: Test B pre/postemergence giant foxtail
# Type: in vivo, Setaria faberii
# applied conditions: Preemergence, Rate 500 g/ha; scale 0 (no effect) to 10 (complete control)
recorded metric: Giant foxtail plant response rating

In [3]: df
Out[3]:
                                   compound   study_target                      recorded_metric  result_number
0  Cc1ccc(N(C(=O)n2oc(=O)n(-c3ccccc3C)c2=O)C(C)C)cc1 [Compound 40]  giant foxtail  Giant foxtail plant response rating             10
1  Cc1cccc(C(C)C)c1-n1c(=O)on(C(=O)N(c2ccc(Cl)cc2)C(C)C)c1=O [Compound 64]  giant foxtail  Giant foxtail plant response rating              4
2  CC(C)N(C(=O)n1oc(=O)n(-c2ccccc2)c1=O)c1ccc(F)cc1 [Compound 38]  giant foxtail  Giant foxtail plant response rating             10
3  CC(C)N(C(=O)n1oc(=O)n(-c2c(Cl)cccc2Cl)c1=O)c1ccc(F)cc1 [Compound 19]  giant foxtail  Giant foxtail plant response rating              5
4  CC(C)N(C(=O)n1oc(=O)n(Cc2ccccc2)c1=O)c1ccc(F)cc1F [Compound 79]  giant foxtail  Giant foxtail plant response rating              9

====

Measured Plant response rating, B. signalgrass accompanies every entry in the list below.
# Tested on: surinam grass
# procedure text: Test B pre/postemergence surinam grass
# Assay type: in vivo, Brachiaria decumbens
# applied conditions: Rate 250 g/ha, Postemergence; scale 0 to 10, 0 is no effect, 10 is complete control
recorded metric: Plant response rating, B. signalgrass

In [3]: df
Out[3]:
                                   molecule  result_number
0  CC(C)N(C(=O)n1oc(=O)n(C)c1=O)c1ccc(F)cc1 [Compound 138]              8
1  CC(C)N(C(=O)n1oc(=O)n([C@@H](C)c2ccccc2)c1=O)c1ccc(Cl)cc1 [Compound 174]              0
2  Cc1nsc(C)c1-n1c(=O)on(C(=O)N(c2ccc(F)cc2)C(C)C)c1=O [Compound 157]              0
3  C=CCn1c(=O)on(C(=O)N(c2ccc(F)cc2)C2CC2)c1=O [Compound 154]              0
4  CC(C)N(C(=O)n1oc(=O)n(N(C)C)c1=O)c1ccc(F)cc1 [Compound 170]              9
5  CC(C)N(Cc1ccccc1)C(=O)n1oc(=O)n(C(C)C)c1=O [Compound 165]              5

====

# System: corn
# procedure text: Test B pre/postemergence corn
# Format: in vivo, Zea mays
# applied conditions: Preemergence, Rate 500 g/ha; scale of 0 to 10 where 0 is no effect and 10 is complete control
recorded metric: Plant response rating, Corn

>>> df
                                   compound  result
0  CCc1ccc(N(C(=O)n2oc(=O)n(-c3ccccc3C)c2=O)C(C)C)cc1 [Compound 230]       0
1  CON=C(Cn1c(=O)on(C(=O)N(c2ccc(F)cc2)C(C)C)c1=O)C(F)(F)F [Compound 227]       0
2  Cc1ccccc1-n1c(=O)on(C(=O)N(c2ccc3c(c2)CCC3)C(C)C)c1=O [Compound 278]       0
3  CC(C)N(C(=O)n1oc(=O)n(CC2=NOCCC2)c1=O)c1ccc(F)cc1F [Compound 602]       2
4  COC(C)n1c(=O)on(C(=O)N(c2ccc(Cl)cc2)C(C)C)c1=O (stereo not shown) [Compound 592]       0
5  CCOC(=O)C=CCn1c(=O)on(C(=O)N(c2ccc(F)cc2)C(C)C)c1=O [Compound 214]       0
6  C=CCn1c(=O)on(C(=O)N(c2ccc(F)cc2)C2CCCCCC2)c1=O [Compound 249]       0
7  CC(C)N(C(=O)n1oc(=O)n(C2CCCC2)c1=O)c1ccccc1 [Compound 283]       0
8  CC(C)N(C(=O)n1oc(=O)n([C@H](C)c2ccccc2)c1=O)c1ccc(F)cc1F [Compound 238]       0
9  CC(C)N(C(=O)n1oc(=O)n(C2CC2)c1=O)c1ccc(F)cc1 [Compound 242]       9
